target_entity: HMGN3 (Homo sapiens)
procedure_details: MST
applied_conditions: 50 nM labelled protein, 0.61 nM-20 uM oligo, 140 mM potassium phosphate pH 7.2 (6.7 for i-motif N1-3; CTCF oligo CD at pH 6.7), 10 mM NaCl in oligo …
measure: Kd

AAAAAAAAAAAAAAAAAAAA [A20]
> 20 µM
GGAGCAGGTGGGGAGCAGGCCGGAAGAGG [N3-M5]
> 20 µM
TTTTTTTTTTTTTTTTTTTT [T20]
> 20 µM
TTTTCTTCTTCTTTT (double strand) [N3-1/N3C-1]
> 20 µM
CAATCGGATCGAATTCGATCCGATTG [hair (ds26)]
> 20 µM
GGGGCCAGTGGACGCGGGGAGCCTGCGGG [N3-M6]
> 10 µM

Request: I have this sequence here, GGGGACGAAGGGGGCGCGGTGCCTCCTGG [N3-M7] , and I need its recorded Kd.
Response: 0.15 µM

Request: Now give it for AAGGAAAAGAAAAAA (double strand) [N3-2/N3C-2] too.
Response: > 20 µM

----------
target_entity: CTCF (Mus musculus) (UniProt Q61164)
Sequence: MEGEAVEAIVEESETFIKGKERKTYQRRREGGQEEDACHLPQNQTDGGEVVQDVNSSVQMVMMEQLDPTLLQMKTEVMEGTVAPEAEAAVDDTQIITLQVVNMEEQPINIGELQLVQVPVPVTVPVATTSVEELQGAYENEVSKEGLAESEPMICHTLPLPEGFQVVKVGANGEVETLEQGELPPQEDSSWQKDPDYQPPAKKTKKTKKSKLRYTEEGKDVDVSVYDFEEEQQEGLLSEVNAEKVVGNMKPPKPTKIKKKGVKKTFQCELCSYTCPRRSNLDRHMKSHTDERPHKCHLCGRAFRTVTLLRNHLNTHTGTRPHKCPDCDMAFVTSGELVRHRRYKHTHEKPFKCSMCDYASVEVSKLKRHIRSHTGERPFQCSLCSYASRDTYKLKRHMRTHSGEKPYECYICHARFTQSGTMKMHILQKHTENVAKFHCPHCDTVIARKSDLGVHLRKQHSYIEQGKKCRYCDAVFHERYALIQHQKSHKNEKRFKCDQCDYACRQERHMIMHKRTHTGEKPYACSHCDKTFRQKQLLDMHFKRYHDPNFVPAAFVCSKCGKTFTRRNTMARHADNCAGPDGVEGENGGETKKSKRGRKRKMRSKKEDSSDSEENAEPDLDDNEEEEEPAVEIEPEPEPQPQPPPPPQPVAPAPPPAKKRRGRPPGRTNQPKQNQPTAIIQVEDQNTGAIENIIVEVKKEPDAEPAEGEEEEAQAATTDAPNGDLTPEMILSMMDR
procedure_details: MST
applied_conditions: 50 nM labelled protein, 0.61 nM-20 uM oligo, 140 mM potassium phosphate pH 7.2 (6.7 for i-motif N1-3; CTCF oligo CD at pH 6.7), 10 mM NaCl in oligo …
measure: Kd
A complete answer gives the number and then names the unit.

GGGGGGCGGGGGGCGGGGGGGGGGG [BDN-G4]
120 nM

Request: Returns the measured Kd for the input sequence. Input: GGGGGTGGGGGGTGGGGGGAGGGGGG [SHA-G4]
Response: 70 nM
